# System: CCRIS mutagenicity, Ames/micronucleus/aberration tests
# test-method-notes: CCRIS mutagenicity studies
# experimental-parameters: Test System: AMES SALMONELLA TYPHIMURIUM; Strain/Indicator: TA98; Metabolic Activation: NONE; Method: PREINCUBATION
The source made the active and inactive calls. No rule for the calls is given here.
Choose one outcome from this list and give only that: yes (1) (active), no (0) (inactive)

# count of solved cases: 3
molecule | class-label
Nc1ccc(S(=O)(=O)O)cc1 | no (0)
c1ccsc1 | no (0)
CNC(=O)C[C@@H](N)C(=O)N[C@@H](C(=O)N[C@@H]1C(=O)N2[C@@H]1SC(C)(C)[C@@H]2C(=O)O)c1ccc(O)cc1 | no (0)

Problem: Which outcome was entered for the molecule C=CCSSCCC in this test?
Solution: no (0)

Problem: Which outcome was entered for the molecule O.O.O.O.O.O.[Cl-].[Cl-].[Ni+2] in this test?
Solution: no (0)

Problem: Which outcome was entered for the molecule COc1cccc(N)c1 in this test?
Solution: no (0)

Problem: Which outcome was entered for the molecule OCCO in this test?
Solution: no (0)

Problem: Which outcome was entered for the molecule CC(=O)Oc1ccccc1C(=O)O in this test?
Solution: no (0)

Problem: Which outcome was entered for the molecule COc1cc(-c2cc(OC)cc(C(C)(C)C)c2O)c(O)c(C(C)(C)C)c1 in this test?
Solution: no (0)

Problem: Which outcome was entered for the molecule OCC(O)CO in this test?
Solution: no (0)

Problem: Which outcome was entered for the molecule O=C/C(=C(/Cl)C(=O)O)C(Cl)Cl in this test?
Solution: yes (1)

Problem: Which outcome was entered for the molecule O=[N+]([O-])c1ccc2ncccc2c1 in this test?
Solution: yes (1)

Problem: Which outcome was entered for the molecule CCC1CO1 (configuration not stated) in this test?
Solution: no (0)

Problem: Which outcome was entered for the molecule O=C(S)c1ccccc1 in this test?
Solution: no (0)

Problem: Which outcome was entered for the molecule CCc1cccc(CC)c1NC(=O)CCl in this test?
Solution: no (0)

Problem: Which outcome was entered for the molecule NNc1ccccc1[N+](=O)[O-] in this test?
Solution: yes (1)

Problem: Which outcome was entered for the molecule O=[N+]([O-])c1cc(-c2cccc([N+](=O)[O-])c2O)ccc1O in this test?
Solution: no (0)

Problem: Which outcome was entered for the molecule O=C1c2ccccc2C(=O)c2c1cc(O)c(C(=O)O)c2O in this test?
Solution: no (0)

Problem: Which outcome was entered for the molecule CCc1cccc(CC)c1NC(=O)CO in this test?
Solution: no (0)
